# Test system: HT-29
# measurement_notes: Cytotoxic activity against colon adenocarcinoma (HT-29) cell line
# Format: functional, cell-based, Homo sapiens
# measurement_setup: Homo sapiens, HT-29
Can you tell me IC50 for the items I'm about to list?
Just the number in nM, nothing appended.

For C/C(=N\N=C(/S)N1CC2CCC(CC2)C1)c1cnccn1 , what is its reported IC50?
11

What value of IC50 has been recorded for this entry: C/C(=N\N=C(/S)N1CC2CCC(CC2)C1)c1ccncn1
50

Values compiled from ChEMBL document CHEMBL1134451.
